# assayName: 384-well plate pilot, post-Golgi transport modulator project, inhibition of yeast transport mutant growth (AID 636)
# experimentalParameters: absorbance 615 nm, about 18 h, stronger effect = higher value
measuredEndpoint: inhibition (%)
# number only, unit % dropped from output

Here is how some molecules turned out for inhibition.
CCN(C(=O)c1cc2cc3ccc(C)cc3nc2o1)c1ccc(OC)cc1; -6.27
c1cncc(-c2nnc3sc(-c4ccco4)nn23)c1; -5.39
CCOC(=O)c1ccc2[nH]c(C)c(CN3CCN(C)CC3)c(=O)c2c1; -7.03
CCCn1c(C)nc2c(c1=O)c1nc3ccccc3nc1n2CCc1ccccc1; -4.42
O=C(NCc1ccccc1)C1CCCN1S(=O)(=O)c1cccc2cccnc12 (stereo unspecified); -0.53

## Input Form field: reported inhibition of O=C1CC(Cc2ccccc2)C(=O)N1CCCn1ccnc1 (stereo unspecified)
## Output -3.85

----------
# assayName: viability gain of MRP-1-high H69AR cells under doxorubicin, pilot screen, MRP-1 activator project, CellTiter-Glo, duplicate (AID 807);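 further: compound pretreatment 18-22 h then 72 h combined with doxorubicin; 0% = doxorubicin alone and 100% = vehicle without doxorubicin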
# experimentalParameters: H69AR viability with doxorubicin, CellTiter-Glo luminescence; at 10 µM
Calls of active or inactive are those of the source.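 How the source made its calls: active means viability increase at or above a cutoff of the median across tested compounds plus 3 SD (cut at about 8.5% in these data, passing the limit was not always enough); inconclusive means some gains above the cutoff, reason not given; inactive means the rest.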
Choose one outcome from this list and give only that: Y = active, N = inactive

CN(C)c1oc(-c2ccccc2Cl)nc1S(=O)(=O)c1ccccc1; N
COc1ccc(Oc2ccc(S(=O)(=O)N3CCCCC3)cc2S(=O)(=O)N2CCCCC2)cc1; N
CC1CN(C(=O)c2ccccc2C(=O)c2ncc[nH]2)CC(C)O1 (stereo unspecified); N
CC1=C(C(N)=O)C(c2ccccn2)n2nc(SCc3ccccc3Cl)nc2N1 (stereo unspecified); N
COc1ccc(N2CCN(CCCNC(=O)CCCn3c(=O)[nH]c4ccsc4c3=O)CC2)cc1; N
CCC(C)[C@@H](C(=O)Nc1ccc2c(c1)OCO2)N1Cc2ccccc2C1=O (stereo partly specified); N
O=C(CN1CCN(Cc2ccccc2F)C1=O)NCCN1CCOCC1; N
CCCCC1CC(CSc2ncn[nH]2)OC1=O (stereo unspecified); N

## Input Please share the test call associated with Nc1nc2n(n1)C(c1ccco1)CC(c1ccc(F)cc1)N2 (stereo unspecified) .
## Output N

## Input Please share the test call associated with `O=C(CCS(=O)(=O)c1cccc2nsnc12)N1CCN(C(=O)c2ccco2)CC1` .
## Output N

## Input Please share the test call associated with `CCC(=O)c1cc2c(cc1NC(=O)c1cccs1)OCCO2` .
## Output N

## Input Please share the test call associated with `CCOc1ccc(Cn2nnc(C(=O)NCCc3ccccc3)c2N)cc1` .
## Output Y

## Input Please share the test call associated with CC12COC3(C(=O)Nc4cccnc4)CC1CCC32C (stereo unspecified) .
## Output N

## Input Please share the test call associated with `CC1(C)CC(=O)c2sc(NC(=O)C3CC3)nc2C1` .
## Output N

## Input Please share the test call associated with `N#C/C(=C1/CCCCCN1)c1nnc2n1CCCCC2` .
## Output N

----------
# assayName: growth suppression of PTEN-deleted HCT116, pilot screen, cell-based, HCT116 clonal line, CellTiter-Glo (AID 824);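 further: 0% = 20 µM Hyamine control and 100% = vehicle cell control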
# experimentalParameters: 60 h, at 10 µM, stronger effect = lower value
Records with an inconclusive call do not appear.
measuredEndpoint: viability (%)
# number only, unit % dropped from output

Here is how some molecules turned out for viability.
O=C(NC1=NCCS1)C1CC2CCC1C2 (configuration not stated); 97.1
CCC(NC(=O)c1ccccc1NC(=O)c1ccco1)C(=O)NC1CCCCC1 (configuration not stated); 98.3
C=CCNC(=O)c1ccc(C)cc1Cl; 94.5
CCC(c1ccccc1)c1nc(-c2ccccn2)no1 (configuration not stated); 97.8
CCS(=O)(=O)Nc1ccc(-c2ccc(NS(=O)(=O)CC)c(OC)c2)cc1OC; 101

## Input Form field: reported viability of COc1ccc2c(Cl)c(C(=O)NC3CCS(=O)(=O)C3)sc2c1 (configuration not stated)
## Output 99.3

The origin of these recorded values is PubChem BioAssay.
